details: in sec-butanol, 306.7 K
Assay Readout: solubility (mole fraction)
Form: value (number only, do not type unit).

### Prompt Fill blank: measured solubility (mole fraction) of the compound CCn1c2ccccc2c2cc(-n3nncc3-c3ccccc3)ccc21 is ____.
### Response 0.00149

---

conditions: in acetonitrile, 319.4 K
Assay Readout: solubility (mole fraction)
Form: value (number only, do not type unit).

### Prompt Fill blank: measured solubility (mole fraction) of the compound CCn1c2ccccc2c2cc(-n3nncc3-c3ccccc3)ccc21 is ____.
### Response 0.00933

---

settings: in ethanol, 297.2 K
Assay Readout: solubility (mole fraction)
Form: value (number only, do not type unit).

### Prompt Fill blank: measured solubility (mole fraction) of the compound CCn1c2ccccc2c2cc(-n3nncc3-c3ccccc3)ccc21 is ____.
### Response 0.000847
